Tested on: Micrococcus luteus
Test: Antibacterial activity against Micrococcus luteus La 2971 after 24 hrs by broth micro dilution method
Type: functional
Details: La 2971, 24 h
Would you mind telling me the reported MIC of each entry?
The reply should consist of the numeric value with the unit placed after it.

Would you please look over these solved cases?
INSERT INTO results (chem_smiles, metric, result) VALUES
  ('O=C1CCSCCC(=O)Nc2nc(nc(-c3ccccc3)n2)NC(=O)CCSCCC(=O)Nc2nc(nc(-c3ccccc3)n2)N1', 'MIC', '12.5 µg/mL'),
  ('O=C1CCSSCCC(=O)Nc2nc(nc(-c3ccccc3)n2)NC(=O)CCSSCCC(=O)Nc2nc(nc(-c3ccccc3)n2)N1', 'MIC', '6.25 µg/mL'),
  ('O=C1CSCC(=O)Nc2nc(nc(-c3ccccc3)n2)NC(=O)CSCC(=O)Nc2nc(nc(-c3ccccc3)n2)N1', 'MIC', '12.5 µg/mL');

Attention now turns to another entry.
Give MIC for O=C1CSSCC(=O)Nc2nc(nc(-c3ccccc3)n2)NC(=O)CSSCC(=O)Nc2nc(nc(-c3ccccc3)n2)N1
3.12 µg/mL

====

Experiment: Cytotoxicity against human 23132/87 cells assessed as cell viability at 1 uM after 24 hrs by MTT assay
Type: functional
Conditions: 23132-87, 24 h, read-out: Activity
metric: viability at 1 µM

INSERT INTO assay_data (chem_smiles, result) VALUES
  ('O=C1CCSSCCC(=O)Nc2nc(nc(-c3ccccc3)n2)NC(=O)CCSSCCC(=O)Nc2nc(nc(-c3ccccc3)n2)N1', '> 86%');

List viability at 1 µM for every entry below, keeping the order given.
1. O=C1CCSCCC(=O)Nc2nc(nc(-c3ccccc3)n2)NC(=O)CCSCCC(=O)Nc2nc(nc(-c3ccccc3)n2)N1
2. O=C1CSSCC(=O)Nc2nc(nc(-c3ccccc3)n2)NC(=O)CSSCC(=O)Nc2nc(nc(-c3ccccc3)n2)N1

> 86%
> 86%

Give viability at 1 µM for O=C1CSCC(=O)Nc2nc(nc(-c3ccccc3)n2)NC(=O)CSCC(=O)Nc2nc(nc(-c3ccccc3)n2)N1
> 86%

====

Tested on: Bacillus cereus
Test: Antibacterial activity against Bacillus cereus ATCC 7064 after 24 hrs by agar disk diffusion assay
Format: functional
Would you mind telling me the reported inhibition zone (IZ) of each entry?
One number for each entry, in mm.

List inhibition zone (IZ) for every entry below, keeping the order given.
1. O=C1CCSCCC(=O)Nc2nc(nc(-c3ccccc3)n2)NC(=O)CCSCCC(=O)Nc2nc(nc(-c3ccccc3)n2)N1
2. O=C1CCSSCCC(=O)Nc2nc(nc(-c3ccccc3)n2)NC(=O)CCSSCCC(=O)Nc2nc(nc(-c3ccccc3)n2)N1
3. O=C1CSSCC(=O)Nc2nc(nc(-c3ccccc3)n2)NC(=O)CSSCC(=O)Nc2nc(nc(-c3ccccc3)n2)N1
4. O=C1CSCC(=O)Nc2nc(nc(-c3ccccc3)n2)NC(=O)CSCC(=O)Nc2nc(nc(-c3ccccc3)n2)N1

1: 13; 2: 15; 3: 17; 4: 14

====

Tested on: Micrococcus luteus
Assay: Antibacterial activity against Micrococcus luteus La 2971 after 24 hrs by agar disk diffusion assay
Format: functional
metric: inhibition zone (IZ) (mm)
Numbers only, in mm.

Would you please look over these solved cases?
INSERT INTO results (chem_smiles, result) VALUES
  ('O=C1CCSCCC(=O)Nc2nc(nc(-c3ccccc3)n2)NC(=O)CCSCCC(=O)Nc2nc(nc(-c3ccccc3)n2)N1', 12),
  ('O=C1CSCC(=O)Nc2nc(nc(-c3ccccc3)n2)NC(=O)CSCC(=O)Nc2nc(nc(-c3ccccc3)n2)N1', 14),
  ('O=C1CCSSCCC(=O)Nc2nc(nc(-c3ccccc3)n2)NC(=O)CCSSCCC(=O)Nc2nc(nc(-c3ccccc3)n2)N1', 17);

Attention now turns to another entry.
Give inhibition zone (IZ) for O=C1CSSCC(=O)Nc2nc(nc(-c3ccccc3)n2)NC(=O)CSSCC(=O)Nc2nc(nc(-c3ccccc3)n2)N1
18

Cited source for all entries: ChEMBL document CHEMBL1156002
